test system: phenylquinone-induced muscular writhing; assay: Analgesic activity, phenylquinone-writhing test; format: in vivo, Swiss albino mice; conditions: Mus musculus, sc, mice, 256 mg/kg; read-out: Response % inhibition
parameter: inhibition in vivo at 256 mg/kg (%)
Use % as the unit, but write only the number.

// field: inhibition in vivo at 256 mg/kg; key: CN1CC=C(C(=O)NN2CC=CCC2)CC1 [Compound A-50] ; value = 47

// field: inhibition in vivo at 256 mg/kg; key: COC(=O)N1C=CC(C(=O)NN2CC=CCC2)=CC1 [Compound A-45] ; value = 95

// field: inhibition in vivo at 256 mg/kg; key: O=C(Cc1cccnc1)NN1CC=CCC1 [Compound A-48] ; value = 100

// field: inhibition in vivo at 256 mg/kg; key: COC(=O)N1CC=C(C(=O)NN2CC=CCC2)CC1 [Compound A-49] ; value = 95
